experiment: Human HepG2 cell viability assay in 384 well format; format: toxicity, cell-based; design: dose 125 nL, time 70.5 hour; concentration not given beside the values; conditions: HepG2 cells, read-out: Inhibition
measurement.label: cytotoxicity at 70.5 h (%)
Just the number in %, nothing appended.

> print(dat)
                                   compound       measurement.label  measured.number
1  CNc1ccnc(N2CCC(c3nnc(CN4CCCC4)n3C)CC2)n1  cytotoxicity at 70.5 h             13.4
2          CN(C)C(=O)CN1CCCc2c(F)cc(Br)cc21  cytotoxicity at 70.5 h            -2.61
3  CSCCC(NC(N)=O)C(=O)N1CCC(Cc2ccccc2)CC1 (configuration not stated)  cytotoxicity at 70.5 h            -3.12
4    CCOc1ncccc1C(=O)N1CCC(Nc2ccc(C)nn2)CC1  cytotoxicity at 70.5 h            -2.98
5  COc1cccc(CN2CCCCC2Cn2nc(C)nc2C)c1 (configuration not stated)  cytotoxicity at 70.5 h             -9.6

Field request: cytotoxicity at 70.5 h | item: COCCOc1ncccc1CNC(=O)N1CCCCCC1
-12.7

Next compound up: N#Cc1ccnc(N2CCN(CC(O)c3ccccc3Cl)CC2)c1 (configuration not stated)
-0.0236

Next compound up: CC(=O)N1CCN(C(=O)NCCCN(C(C)C)S(C)(=O)=O)CC1
-8.44

Next compound up: CCCc1nccn1CCn1cnc2ccsc2c1=O
1.1

Next compound up: CCOC(=O)c1n[nH]cc1-c1cncn1CC(C)n1nc(C)cc1C (configuration not stated)
-8.74

Next compound up: Cc1cc(NCCNS(C)(=O)=O)nc2cc3c(cc12)CCC3
-5.01

Next compound up: Cc1nc(C(C)(C)NC(=O)Nc2ccncc2)no1
-0.296

Next compound up: COCCOc1ncccc1C(=O)N1CCCC1Cn1cc(C)cn1 (configuration not stated)
-12

Next compound up: Cc1nc2c(C)cccc2cc1C(=O)N1CCC2(CC1)NCCNC2=O
-15.8

Next compound up: CC(C)c1nc2c(n1C)CCN(Cc1nc(-c3cccs3)no1)C2
-9.62

Next compound up: O=C(c1cnc2ccc(F)cc2c1NCc1ccccn1)N1CCCC1
-17.9

Next compound up: c1ccc(CN2CCN(Cc3cscn3)CC2)cc1
-6.7

Next compound up: Cc1ccc(C2COCCN2C(=O)c2ccc(C#N)cc2)o1 (configuration not stated)
-7.82

Next compound up: O=C1N[C@@H]2CCN(C(=O)c3ccccc3)[C@@H]2C(=O)N1Cc1ccccc1
-5.37

Next compound up: CC(C(=O)Nc1cccc(F)c1)N(C)CCN1CCOCC1 (configuration not stated)
-4.4

Next compound up: COc1cc(N2CC[C@@H]3O[C@@H](C(=O)NC(C)C)C[C@@H]32)ncn1
-8.65

Next compound up: Cc1ccc(=O)n(CC2(O)CCN(Cc3cccs3)CC2)n1
-8.17

These data points were gathered from ChEMBL document CHEMBL3507680.
